Details: 327.15 K; 100 kPa; Liquid; Vibrating tube method
parameter_measured: mass density (kg/m3)

In [3]: df
Out[3]:
                           substance_smiles  parameter_measured  experimental_result
0  CC[N+](C)(CCO)CCO.O=S(=O)([N-]S(=O)(=O)C(F)(F)F)C(F)(F)F        mass density               1489.3
1  CC[N+](C)(C)CCOC.O=S(=O)([N-]S(=O)(=O)C(F)(F)F)C(F)(F)F        mass density                 1404
2  CC[N+](C)(C)CCCO.O=S(=O)([N-]S(=O)(=O)C(F)(F)F)C(F)(F)F        mass density               1438.2
3  CCCC[N+](C)(C)CC.O=S(=O)([N-]S(=O)(=O)C(F)(F)F)C(F)(F)F        mass density               1346.3
4  CC[N+](CCO)(CCO)CCO.O=S(=O)([N-]S(=O)(=O)C(F)(F)F)C(F)(F)F        mass density               1504.4
5  C[N+](CCO)(CCO)CCO.O=S(=O)([N-]S(=O)(=O)C(F)(F)F)C(F)(F)F        mass density               1540.7
6  CCCC[N+](CCO)(CCO)CCO.O=S(=O)([N-]S(=O)(=O)C(F)(F)F)C(F)(F)F        mass density               1431.5
